Where do the numbers come from? From patent US10407467B2.

- Test system: Klebsiella pneumoniae
- Method summary: MIC, compound in combination with a second agent (broth microdilution)
- Assay type: cell-based
- Measurement setup: 1:1 (wt:wt) combination with Rifampicin; MIC is total drug concentration
Bridge positions count the residues as written; N and C are the ends. Square brackets hold non-standard residues; d marks the D form. Peptide text beside a SMILES is read from it. ξ: configuration not given here. Thr(3ξ) = CC(O)[C@H](N)C(=O)O; 4Abz = Nc1ccc(C(=O)O)cc1; Dab = NCC[C@H](N)C(=O)O
Readout name: MIC K. pneumoniae CCUG-59348 (micrograms/mL)
Write the number in micrograms/mL without appending the unit.

query: Assign MIC K. pneumoniae CCUG-59348 to the following record: CC(C)C[C@@H]1NC(=O)[C@@H](Cc2ccccc2)NC(=O)[C@H](CCN)NC(=O)[C@@H](NC(=O)[C@H](CCN)NC(=O)[C@@H](NC(=O)c2ccc(N)cc2)C(C)O)CCNC(=O)[C@H](C(C)O)NC(=O)[C@H](CCN)NC(=O)[C@H](CCN)NC1=O (stereo partly shown) [Example 5, 4-Aminobenzoyl polymyxin B nonapeptide] (H-[4Abz][Thr(3ξ)][Dab][Dab][Dab][dF]L[Dab][Dab][Thr(3ξ)]; lactam 4-C)
result: 2
